self-cleavage kobs at 2500 uM GlcN6P values by entry
B1: glmS ribozyme (parent)
chain: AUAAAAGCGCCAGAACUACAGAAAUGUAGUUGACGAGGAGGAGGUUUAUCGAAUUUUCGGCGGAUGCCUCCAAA

- Variants of: B1
- assay method text: self-cleavage kobs at 2500 uM GlcN6P; higher = faster cleavage; RNA array
- condition description: with glucosamine-6-phosphate
Fewer inactive variants are shown than the library holds.

Here's what some known entries look like.
If you can, please state the reported self-cleavage kobs at 2500 uM GlcN6P value of C10A C11G G35C G44C .
< 1e-05 s⁻¹

If you can, please state the reported self-cleavage kobs at 2500 uM GlcN6P value of G41U A53U G60U C61A G66U .
< 1e-05 s⁻¹

If you can, please state the reported self-cleavage kobs at 2500 uM GlcN6P value of G29C G63C .
< 1e-05 s⁻¹

If you can, please state the reported self-cleavage kobs at 2500 uM GlcN6P value of G32U A48G G63C .
< 1e-05 s⁻¹

If you can, please state the reported self-cleavage kobs at 2500 uM GlcN6P value of C10G G43A A52G A53C C70U .
< 1e-05 s⁻¹

Others:
If you can, please state the reported self-cleavage kobs at 2500 uM GlcN6P value of A12G C16U G43A U45C .
< 1e-05 s⁻¹

If you can, please state the reported self-cleavage kobs at 2500 uM GlcN6P value of A33U G43A A48U C61U C70U .
< 1e-05 s⁻¹

If you can, please state the reported self-cleavage kobs at 2500 uM GlcN6P value of U30G U31A G35A A39G G51C G59A .
< 1e-05 s⁻¹

If you can, please state the reported self-cleavage kobs at 2500 uM GlcN6P value of A33G A42U U49A G60A .
< 1e-05 s⁻¹

If you can, please state the reported self-cleavage kobs at 2500 uM GlcN6P value of G7U A12C G29C .
< 1e-05 s⁻¹
